target: human 5-HT2A receptors (Homo sapiens, UniProt P28223); assay: Phosphatidyl inositol (PI) hydrolysis assay at 5-HT2A; assay type: cell-based; design: expressed in transfected cells; conditions: negative logarithm of EC50 in molar (M); HEK 293T cells; mean ± SEM; read-out: PI Hydrolysis pEC50 (converted)
Sequence (P28223 whole entry): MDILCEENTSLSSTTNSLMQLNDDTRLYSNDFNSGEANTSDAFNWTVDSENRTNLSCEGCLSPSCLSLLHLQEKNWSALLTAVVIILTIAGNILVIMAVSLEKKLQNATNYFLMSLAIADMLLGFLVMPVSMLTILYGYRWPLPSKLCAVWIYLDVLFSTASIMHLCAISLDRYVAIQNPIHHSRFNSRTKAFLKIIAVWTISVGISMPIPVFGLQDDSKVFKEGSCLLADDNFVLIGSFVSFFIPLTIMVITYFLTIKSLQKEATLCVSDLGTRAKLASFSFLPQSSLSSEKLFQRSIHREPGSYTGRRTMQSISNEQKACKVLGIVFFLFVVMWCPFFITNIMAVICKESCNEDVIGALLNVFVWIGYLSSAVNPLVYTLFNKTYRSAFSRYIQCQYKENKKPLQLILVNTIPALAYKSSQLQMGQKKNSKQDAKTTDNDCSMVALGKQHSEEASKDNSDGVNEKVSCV
Attribute: EC50
Provide the reading as a plain figure in M.

Example entries begin here.
NCCc1c[nH]c2ccc(C(N)=O)cc12 [5-CT, 5-carboxamidotryptamine, reference compound]    2.51e-07
CCCN1CCC[C@@H](c2cccc(S(C)(=O)=O)c2)C1 [(−)-OSU6162]    1.26e-06

# EC50 lookup, item CCCN1CCC[C@H](c2cccc(S(C)(=O)=O)c2)C1 [(+)-OSU6162] 2e-06
